System: Saccharomyces cerevisiae;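 further: PSI is a weighted mean of sequencing reads over stability bins, variants kept only with over 10 reads, mCherry proximal and sfGFP distal, peptide attached via GGGS linker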
experimental_protocol: protein stability index of tFT-peptide fusion (C-terminal peptide) (PSI (0-1 scale)); higher = more stable (slower turnover)
condition_notes: genetic background: das1 deletion; temperature: 30 C
Kindly state protein stability index for each of the entries shown.
Answers are plain numbers.

- primary_sequence: "SVLVWFLVFLVW"
  protein stability index: 0.223
- primary_sequence: "WISDRCPSVLCY"
  protein stability index: 0.185
- primary_sequence: "PWGSHLYYVVCI"
  protein stability index: 0.238
- primary_sequence: "LPPTPPLSPPPH"
  protein stability index: 0.435
- primary_sequence: "RGAVLLPSLWVV"
  protein stability index: 0.577

Hello, I would appreciate it if you could give protein stability index for each entry below.
1. FCICRFLFIFLG
2. LFLSAFFYLLVW

Solution:
1. 0.358
2. 0.245
